Listing: EC50 (nM) GuR; cAMP content, HEK293 cells expressing the human glucagon receptor of selected binders
target: human glucagon receptor (Glucagon-R) (human, UniProt P47871 26-477); assay: cell-based or functional assay
Sequence (P47871 26-477): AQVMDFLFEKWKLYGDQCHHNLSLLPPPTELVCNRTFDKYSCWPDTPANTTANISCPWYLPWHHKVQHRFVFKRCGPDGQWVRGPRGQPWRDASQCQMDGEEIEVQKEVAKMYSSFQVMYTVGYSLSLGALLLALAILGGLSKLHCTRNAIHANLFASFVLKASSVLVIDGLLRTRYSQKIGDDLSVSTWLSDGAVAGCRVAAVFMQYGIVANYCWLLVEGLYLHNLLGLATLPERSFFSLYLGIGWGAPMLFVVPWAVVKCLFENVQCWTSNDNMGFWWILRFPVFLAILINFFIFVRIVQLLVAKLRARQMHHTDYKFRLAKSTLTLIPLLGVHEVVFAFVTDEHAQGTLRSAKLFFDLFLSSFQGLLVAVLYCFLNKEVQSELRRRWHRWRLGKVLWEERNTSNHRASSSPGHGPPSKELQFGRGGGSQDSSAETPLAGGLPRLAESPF
Report the value in nM with no unit label.

(Q) Would you kindly share the measured EC50 (nM) GuR; cAMP content, HEK293 cells expressing the human glucagon receptor for H-HSQGTFTSDYSKYLDSKAAHDFVEWLLRA-NH2 [Compound 48] ?
(A) 0.06

(Q) Recorded EC50 (nM) GuR; cAMP content, HEK293 cells expressing the human glucagon receptor for H-HSQGTFTSDYSKYLDSRHAQDFVWLMNT-NH2 [Compound 244] , please?
(A) 0.05

(Q) Need EC50 (nM) GuR; cAMP content, HEK293 cells expressing the human glucagon receptor, item H-HSQGTFTSDYSKYLDSKAAQDFVWLMNT-NH2 [Compound 260]
(A) 0.07

Data credit: patent US20130157953A1
